testedTarget: SMARCA4 (Homo sapiens, UniProt P51532)
Construct: SMARCA4-HiBiT knock-in Hela monoclonal cell (CS3023226) were purchased from Promega; host or cells: HeLa (CRISPR HiBiT knock-in monoclonal line, heterozygous)
Sequence (P51532 whole entry): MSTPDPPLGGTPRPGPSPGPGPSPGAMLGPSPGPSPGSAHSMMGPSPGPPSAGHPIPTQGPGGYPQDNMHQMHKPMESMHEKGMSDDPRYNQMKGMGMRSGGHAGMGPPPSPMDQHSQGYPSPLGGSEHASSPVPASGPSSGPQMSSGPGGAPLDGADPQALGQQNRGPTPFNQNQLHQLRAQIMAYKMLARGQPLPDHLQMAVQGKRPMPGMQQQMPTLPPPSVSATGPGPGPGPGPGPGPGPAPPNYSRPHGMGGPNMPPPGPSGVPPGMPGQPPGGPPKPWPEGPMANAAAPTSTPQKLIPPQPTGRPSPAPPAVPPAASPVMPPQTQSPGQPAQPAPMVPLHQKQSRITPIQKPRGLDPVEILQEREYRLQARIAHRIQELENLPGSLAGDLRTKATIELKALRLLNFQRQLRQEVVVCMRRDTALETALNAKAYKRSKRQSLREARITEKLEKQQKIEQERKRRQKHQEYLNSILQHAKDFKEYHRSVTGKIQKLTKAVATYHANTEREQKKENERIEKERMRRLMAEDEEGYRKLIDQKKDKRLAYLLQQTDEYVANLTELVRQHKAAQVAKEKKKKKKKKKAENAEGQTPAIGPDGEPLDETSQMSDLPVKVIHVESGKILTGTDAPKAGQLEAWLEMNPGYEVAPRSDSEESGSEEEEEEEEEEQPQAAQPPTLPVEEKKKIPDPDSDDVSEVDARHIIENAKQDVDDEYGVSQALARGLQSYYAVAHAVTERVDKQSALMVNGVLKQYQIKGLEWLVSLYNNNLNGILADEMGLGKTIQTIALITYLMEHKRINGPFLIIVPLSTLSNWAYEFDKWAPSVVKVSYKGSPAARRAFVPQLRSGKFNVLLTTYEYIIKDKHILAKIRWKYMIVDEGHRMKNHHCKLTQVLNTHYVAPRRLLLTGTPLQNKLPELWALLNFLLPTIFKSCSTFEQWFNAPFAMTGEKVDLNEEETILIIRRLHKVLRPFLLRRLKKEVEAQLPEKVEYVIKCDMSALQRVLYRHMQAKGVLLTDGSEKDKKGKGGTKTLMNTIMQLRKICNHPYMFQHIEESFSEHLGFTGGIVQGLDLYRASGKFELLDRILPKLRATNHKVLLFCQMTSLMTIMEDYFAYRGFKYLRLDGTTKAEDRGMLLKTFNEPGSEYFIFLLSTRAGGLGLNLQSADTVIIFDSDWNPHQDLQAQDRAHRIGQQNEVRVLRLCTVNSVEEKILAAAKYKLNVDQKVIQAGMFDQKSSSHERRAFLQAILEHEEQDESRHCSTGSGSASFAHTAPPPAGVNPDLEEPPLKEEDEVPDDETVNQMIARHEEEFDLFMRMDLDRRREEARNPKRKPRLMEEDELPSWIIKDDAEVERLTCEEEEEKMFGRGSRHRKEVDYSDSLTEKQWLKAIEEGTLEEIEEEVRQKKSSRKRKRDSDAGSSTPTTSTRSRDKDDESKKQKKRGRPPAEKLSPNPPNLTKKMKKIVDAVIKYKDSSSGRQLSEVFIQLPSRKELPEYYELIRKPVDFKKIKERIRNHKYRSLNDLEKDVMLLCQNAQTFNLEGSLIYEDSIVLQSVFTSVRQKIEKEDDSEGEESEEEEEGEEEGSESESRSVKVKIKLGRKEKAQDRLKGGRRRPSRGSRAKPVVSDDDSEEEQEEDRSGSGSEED
testDetails: SMARCA4 HiBiT degradation assay in HeLa cells
Assay type: cell-based
testParameters: HeLa, 18 hours
measuredParameter: Dmax

molecule="CCC12CNc3nnc(-c4cccc(F)c4O)cc3N1CCN(C(=O)N1C[C@H](C)N(CC3CCN(c4ccc5c(c4)C(=O)N(C4CCC(=O)NC4=O)C5)CC3)C[C@H]1C)C2 (single isomer, unassigned)" result="50 to 75%"
molecule="CCC12CNc3nnc(-c4cccc(Cl)c4O)cc3N1CCN(C(=O)C1(F)CCN(CC3CCN(c4ccc5c(c4)C(=O)N([C@H]4CCC(=O)NC4=O)C5)CC3)CC1)C2 (single isomer, unassigned)" result="> 75%"
molecule="C[C@@H]1CN(CC2CCN(c3ccc4c(c3)C(=O)N(C3CCC(=O)NC3=O)C4)CC2)C[C@@H](C)N1C(=O)N1CCN2c3cc(-c4cc(F)cc(F)c4O)nnc3NC[C@H]2C1 (some centres unmarked)" result="< 50%"
molecule="C[C@H]1CN(CC2CCN(c3ccc4c(c3)C(=O)N(C3CCC(=O)NC3=O)C4)CC2)C[C@H](C)N1C(=O)N1CCN2c3cc(-c4cc(F)cc(F)c4O)nnc3NC[C@H]2C1 (some centres unmarked)" result="50 to 75%"
molecule=C[C@@H]1CN(CC2CCN(c3ccc4c(c3)C(=O)N([C@H]3CCC(=O)NC3=O)C4)CC2)C[C@@H](C)N1C(=O)N1CCN2c3cc(-c4cccc(F)c4O)nnc3NC[C@]2(C(F)F)C1 result="50 to 75%"

###

testedTarget: SMARCA4 (Homo sapiens, UniProt P51532)
Construct: SMARCA4-HiBiT knock-in Hela monoclonal cell (CS3023226) were purchased from Promega; host or cells: HeLa (CRISPR HiBiT knock-in monoclonal line, heterozygous)
testDetails: SMARCA4 HiBiT degradation assay in HeLa cells
Type: cell-based
testParameters: HeLa, 18 hours
measuredParameter: Dmax

compound="O=C1CCC(N2Cc3ccc(N4CC[C@@H](CN5CC[C@@H](CN6CCN7c8cc(-c9cc(F)cc(F)c9O)nnc8NC[C@H]7C6)C5)C4)cc3C2=O)C(=O)N1 (some centres unmarked) [Example 52]" measuredparameter=Dmax result="50 to 75%"
compound="O=C1CCC(N2Cc3ccc(N4CCN(C[C@H]5CC[C@H](CN6CCN7c8cc(-c9cc(F)cc(F)c9O)nnc8NC[C@H]7C6)CC5)CC4)cc3C2=O)C(=O)N1 (some centres unmarked) [Example 54]" measuredparameter=Dmax result="> 75%"
compound="CCC12CNc3nnc(-c4cccc(F)c4O)cc3N1CCN(C(=O)N1C[C@H](C)N(CC3CCN(c4ccc5c(c4)C(=O)N([C@H]4CCC(=O)NC4=O)C5)CC3)C[C@H]1C)C2 (single isomer, unassigned) [Example 78]" measuredparameter=Dmax result="50 to 75%"
compound="CC1(C)CN(CC2CCN(c3ccc4c(c3)C(=O)N(C3CCC(=O)NC3=O)C4)CC2)CCN1C(=O)N1CCN2c3cc(-c4cccc(Cl)c4O)nnc3NCC2(C)C1 (mixture of isomers) [Example 31]" measuredparameter=Dmax result="< 50%"
compound="CC1(C)CN(CC2CCN(c3ccc4c(c3)C(=O)N(C3CCC(=O)NC3=O)C4)CC2)CCC1C(=O)N1CCN2c3cc(-c4cc(F)cc(F)c4O)nnc3NC[C@H]2C1 (some centres unmarked) [Example 119]" measuredparameter=Dmax result="< 50%"

Sourced from patent US20230365576A1
